- TARGET_OR_SYSTEM: Aβ 1-40 (Homo sapiens)
- Sequence (P05067 672-711): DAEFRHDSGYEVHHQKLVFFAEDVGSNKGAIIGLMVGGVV
- EXPERIMENT_NOTES: Sedimentation velocity of Aβ quaternary structures in the presence of inhibitors
- Assay type: biochemical
- Design: Amyloid-β (Aβ 1-40) was purchased from California Peptides (Lot # SF104); purchased California Peptides Lot # SF104
- EXPERIMENTAL_SETUP: Aβ 1-40 100 μM + compound 100 μM, 37° C., 20 h
Listing of recorded Sedimentation velocities, 20 h (average sedimentation coefficient) by entry.
ASSAY_READOUT: Sedimentation velocities, 20 h (average sedimentation coefficient) (S)

[[record]]
molecule = "Br.Oc1ccc2c(c1O)-c1cccc3c1[C@@H](C2)NCC3 [D040, R(−)-Norapomorphine hydrobromide]"
target_or_system = "Aβ 1-40 (Homo sapiens)"
observed_result = 31

[[record]]
molecule = "CCCN1CCc2cccc3c2[C@H]1Cc1ccc(O)c(O)c1-3.Cl [D027, R(−)-Propylnorapomorphine hydrochloride]"
target_or_system = "Aβ 1-40 (Homo sapiens)"
observed_result = 33

[[record]]
molecule = "Br.CCCN1CCc2cc(O)cc3c2[C@H]1Cc1ccc(O)c(O)c1-3"
target_or_system = "Aβ 1-40 (Homo sapiens)"
observed_result = 35

[[record]]
molecule = "Br.CN1CCc2cc(O)cc3c2[C@H]1Cc1ccc(O)c(O)c1-3"
target_or_system = "Aβ 1-40 (Homo sapiens)"
observed_result = 33

